The reported numbers originate from PubChem BioAssay (NCI).

tested on: T-47D breast; assay: NCI tumour cell line growth inhibition, 48 h
Measured Parameter: TGI

What does the record list as TGI for COC(=O)C12CCC(C(=O)OC)(Cc3c(c4ccccc4n3S(=O)(=O)c3ccccc3)C1)C2=O (stereo not drawn) ?
> 100 µM

What does the record list as TGI for Cc1ccc(-n2c3c(c4c(CN5CCCCC5)c(O)ccc42)CCc2ccccc2C3=O)cc1 ?
> 100 µM

What does the record list as TGI for CCOC(=O)C(Cc1ccc2c(c1)CCC2)(Cc1ccc2c(c1)CCC2)C(=O)OCC ?
> 100 µM

----------
tested on: IGROV1 ovarian; assay: NCI tumour cell line growth inhibition, 48 h
Provide the reported TGI of each item.
// return numeric value only (unit: µM, not printed)

What does the record list as TGI for Cc1ccc2nc3c(Cl)cc(=O)cc-3sc2c1 ?
38.1

What does the record list as TGI for CCCCc1ccc(Nc2nc3c(ncn3C3OC(COC(C)=O)C(OC(C)=O)C3OC(C)=O)c(=O)[nH]2)cc1 (configuration not stated) ?
37.7

What does the record list as TGI for CC(=O)OCC1C(C(C)OC(C)=O)CCC2C1CCC1(C)C(OC(C)=O)CCC21 (configuration not stated) ?
42.1

----------
test system: CCRF-CEM leukemia; assay: NCI tumour cell line growth inhibition, 48 h
Provide the reported TGI of each item.

What does the record list as TGI for O=C(N=Nc1ccc([N+](=O)[O-])cc1)NNc1ccc([N+](=O)[O-])cc1 ?
47.1 µM

What does the record list as TGI for CN(C)c1cccc(-c2cc(=O)c3ccccc3[nH]2)c1 ?
> 100 µM

What does the record list as TGI for CCN(CC)CCn1ncc2ccc3c(c(=O)c4cccnc4n3CCN(CC)CC)c21 ?
1.82 µM

What does the record list as TGI for COc1ccc(/C=C2\N=C(c3ccccc3)OC2=O)c(OCc2ccccc2)c1 ?
50.2 µM

What does the record list as TGI for CCOC(=O)c1ccc(N=C2SC(=S)N(c3ccc(F)cc3)C2=Nc2ccc(C(=O)OCC)cc2)cc1 ?
> 57.6 µM

What does the record list as TGI for COc1ccc2c(c1)/C(=C(\C(Cl)=C(\Cl)N1CCCCC1)[N+](=O)[O-])N2 ?
> 100 µM

What does the record list as TGI for C1CNCCN2CCCNCCN(C1)CC2 ?
37.9 µM

What does the record list as TGI for OC(c1ccccc1)(c1ccccc1)c1ccccn1 ?
> 100 µM

What does the record list as TGI for Cc1ccc2nc3c(C(=O)NCCN(C)C)cccc3cc2c1 ?
5.28 µM

What does the record list as TGI for C#CCNC(=O)CCC(N)C(=O)O (stereo not given) ?
> 100 µM

What does the record list as TGI for CCOC(=O)C(SCCO)C(C(=O)OCC)n1ccc(N)nc1=O (stereo not given) ?
> 100 µM

What does the record list as TGI for CCOC(=O)/C(C(=S)NC)=C(/N)N1CCCC1 ?
> 100 µM

What does the record list as TGI for CCOc1ccccc1NC(=O)C(=O)CC(=O)C1=C(C)Nc2ccccc2S1 ?
> 100 µM

What does the record list as TGI for O=c1oc2ncccc2n1Cc1ccc([N+](=O)[O-])cc1 ?
> 100 µM

What does the record list as TGI for CC1=C(C)C(=O)OC(C(C)(O)C2(O)CCC3(O)C4CC(Cl)C5(O)C(O)C=CC(=O)C5(C)C4CCC32C)C1 (stereo not given) ?
53.4 µM

What does the record list as TGI for CCCc1cc(=O)oc2c(C(=O)CC(C)C)c(O)c(CC=C(C)C)c(O)c12 ?
> 50 µM

What does the record list as TGI for NNC(N)=Nc1cccc2ccccc12 ?
> 100 µM

What does the record list as TGI for COC(=O)CCC(NC(=S)N/N=C(\C)c1ccccn1)C(=O)OC (stereo not given) ?
> 100 µM

What does the record list as TGI for CC(C)(O)[C@@H]1CCC(C)([C@H]2[C@@H](O)CC3(C)C4CC(OC5OC(CO)C(O)C(O)C5O)C5C(C)(C)[C@@H](OC6OCC(O)C(O)C6O)CC[C@@]56C[C@@]46CC[C@]23C)O1 (stereo not given in full) ?
> 100 µM

What does the record list as TGI for Cc1ccc(/C=C(\C#N)n2nnc3cc(Cl)c(Cl)cc32)cc1 ?
> 100 µM
